System: NCI-H226 cells
Test: Cell growth assay (CellTiter-Glo)
Format: cell-based, human
Conditions: Homo sapiens, NCI-H226, 168 h, 7 days treatment, CellTiter-Glo luminescence, read-out: H226 CTG IC50
Property: IC50; scope: individual compounds

# example entries with known answers
{"compound": "Cn1ncc2c([C@@H]3C[C@H]3C(=O)N3CC(O)C3)cc(-c3ccc(C(F)(F)F)cc3)cc21 (racemic) [Example 31]", "tested-system": "NCI-H226 cells", "IC50": "100 to 500 nM"}
{"compound": "Cn1cc2cc(Oc3ccc(C(F)(F)F)cc3)cc([C@@H]3C[C@H]3C(=O)N3CCO[C@H](CO)C3)c2n1 (single isomer, unassigned) [Example 61]", "tested-system": "NCI-H226 cells", "IC50": "< 100 nM"}

Read the next record carefully.
Query :: Fill blank: measured IC50 of the compound O=C(O)[C@@H]1CC1c1cc(-c2ccc(C(F)(F)F)cc2)cc2cn[nH]c12 (mixture of isomers) [Example 1] is ____.
Result :: 1000 to 30000 nM

* * *

Property: TEAD1 ΔTm; scope: individual compounds
Target: TEAD1 (Homo sapiens)
Sequence (P28347 whole entry, species assumed): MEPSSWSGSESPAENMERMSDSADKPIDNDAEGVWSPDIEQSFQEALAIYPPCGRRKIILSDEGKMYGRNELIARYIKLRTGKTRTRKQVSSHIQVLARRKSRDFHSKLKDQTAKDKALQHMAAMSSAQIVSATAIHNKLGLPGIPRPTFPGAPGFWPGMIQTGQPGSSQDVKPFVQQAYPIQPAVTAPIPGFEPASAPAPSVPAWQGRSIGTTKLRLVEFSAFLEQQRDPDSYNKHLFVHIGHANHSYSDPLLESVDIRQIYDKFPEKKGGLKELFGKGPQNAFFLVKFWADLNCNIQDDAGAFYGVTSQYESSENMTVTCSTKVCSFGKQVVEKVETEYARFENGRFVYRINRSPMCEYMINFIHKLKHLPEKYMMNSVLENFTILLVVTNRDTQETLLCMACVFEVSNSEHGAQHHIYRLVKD
Assay: Thermal shift assay TEAD1
Type: binding
Provide the reading as a plain figure in °C.

{"compound": "CNS(=O)(=O)CCc1cc(Oc2ccc(C(F)(F)F)cc2)cc2cccnc12", "tested-system": "TEAD1 (Homo sapiens)", "quantity-name": "TEAD1 ΔTm", "unit-symbol": "°C", "obs-value": 8.9}
{"compound": "CNC(=O)[C@@H]1CC1c1cc(-c2ccc(C(F)(F)F)cc2)cc2c1=NC(C)N=2 (mixture of isomers)", "tested-system": "TEAD1 (Homo sapiens)", "quantity-name": "TEAD1 ΔTm", "unit-symbol": "°C", "obs-value": 4.5}
{"compound": "Cn1cc2cc(Oc3ccc(C(F)(F)F)cc3)cc(C3C[C@H]3C(=O)N3[C@@H]4CC[C@H]3C[C@H](O)C4)c2n1 (single isomer, unassigned)", "tested-system": "TEAD1 (Homo sapiens)", "quantity-name": "TEAD1 ΔTm", "unit-symbol": "°C", "obs-value": 6.8}

Query :: Fill blank: measured TEAD1 ΔTm of the compound CNC(=O)[C@@H]1CC1c1cc(Oc2ccc(C(F)(F)F)cc2)cc2c1cnn2C (mixture of isomers) is ____.
Result :: 6.8

Query :: // same read-out, input: CC(C)NC(=O)[C@H]1C[C@@H]1c1cc(Oc2ccc(C(F)(F)F)cc2)cc2cn(C)nc12 (single isomer, unassigned) [Example 56b]
Result :: 9.1

Query :: // same read-out, input: Cn1cc2cc(Oc3ccc(C(F)(F)F)cc3)cc(C3C[C@H]3C(=O)N3CCP(C)(=O)CC3)c2n1 (single isomer, unassigned)
Result :: 3.0

Query :: // same read-out, input: CNC(=O)[C@@H]1CC1c1cc(-c2ccc(C(F)(F)F)cc2)cc2c1cnn2C (mixture of isomers) [Example 24]
Result :: 2.4

* * *

Property: TEAD4 ΔTm; scope: individual molecules
Target: UniProt:Q15561
Sequence (Q15561 whole entry, species assumed): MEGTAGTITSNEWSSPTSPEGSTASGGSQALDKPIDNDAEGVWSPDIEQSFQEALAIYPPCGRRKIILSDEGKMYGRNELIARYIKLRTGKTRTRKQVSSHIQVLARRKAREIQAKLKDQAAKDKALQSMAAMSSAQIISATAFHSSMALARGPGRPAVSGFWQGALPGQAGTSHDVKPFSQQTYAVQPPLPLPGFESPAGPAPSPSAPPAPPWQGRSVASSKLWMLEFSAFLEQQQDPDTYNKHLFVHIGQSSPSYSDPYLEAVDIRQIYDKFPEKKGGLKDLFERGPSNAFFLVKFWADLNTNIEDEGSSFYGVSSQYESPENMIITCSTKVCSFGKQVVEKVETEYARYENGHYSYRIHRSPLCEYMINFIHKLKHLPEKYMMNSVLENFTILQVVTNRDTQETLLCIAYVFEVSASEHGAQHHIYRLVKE
Assay: Thermal shift assay TEAD4
Type: binding
Provide the reading as a plain figure in °C.

# example entries with known answers
{"molecule": "CC(C)NC(=O)[C@@H]1C[C@H]1c1cc(Oc2ccc(C(F)(F)F)cc2)cc2cn(C)nc12 (single isomer, unassigned) [Example 56a]", "unit-symbol": "°C", "TEAD4 ΔTm": 2.6}
{"molecule": "Cn1cc2cc(Oc3ccc(C(F)(F)F)cc3)cc(C3C[C@H]3C(=O)NC34CC(O)(C3)C4)c2n1 (single isomer, unassigned)", "unit-symbol": "°C", "TEAD4 ΔTm": 8.7}

Read the next record carefully.
Query :: Write down the reported TEAD4 ΔTm of Cn1cc2cc(OC3CC4(C3)CC(F)(F)C4)cc(C3C[C@H]3C(=O)O)c2n1 (mixture of isomers) , test system: UniProt:Q15561.
Result :: 6.4
